The reported measurements were obtained from the supplement of paper PMC10724198.

Tested on: Saccharomyces cerevisiae;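 note: PSI is a weighted mean of sequencing reads over stability bins, variants kept only with over 10 reads, mCherry proximal and sfGFP distal, peptide attached via GGGS linker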
Assay: protein stability index of tFT-peptide fusion (C-terminal peptide) (PSI (0-1 scale)); higher = more stable (slower turnover)
Settings: genetic background: wild type; temperature: 30 C
OBSERVED PROPERTY: protein stability index
Keep the answer to the number alone.

Input: Let me know recorded protein stability index for GPGGVGGTSGGK , thanks.
Output: 0.69

Input: Give protein stability index for the following sequence: CLLLSLRVPPFS
Output: 0.638

Input: Provide one value: measured protein stability index of TATYCFNALRRS
Output: 0.72

Input: Identify measured protein stability index associated with HIHKKGPSGHQK
Output: 0.696

Input: Give the measured protein stability index for EGAGGVVVEGLG
Output: 0.68

Input: Supply measured protein stability index of SGAGVNWGVGWG in your reply.
Output: 0.714

Input: Tell me protein stability index reported for PLSPPLPPPLSL
Output: 0.681

Input: Specify reported protein stability index for the sequence shown: IRWKEIIDKWSY
Output: 0.844

Input: Please list protein stability index recorded for the sequence GCGRYWGVVRGC
Output: 0.66

Input: Item VVFASNGSYVLG : provide protein stability index
Output: 0.672

Input: Tell us which protein stability index value is on record for VWLGTCLPRRAV
Output: 0.725

Input: Please list protein stability index recorded for the sequence PLPYSPPHPVPP
Output: 0.701

Input: Return protein stability index (reported value) for this sequence: SEAKRMSGSSAN
Output: 0.635

Input: # return recorded protein stability index for entry YSKVGCRHSYHT
Output: 0.669

Input: Report measured protein stability index; entry is RRHKNNRLTVCR
Output: 0.625

Input: Respond only with protein stability index recorded for INNTKQSENRKS
Output: 0.701

Input: Dear colleague, please send me the reported protein stability index for SMMMIISQRKTR when you can.
Output: 0.787

Input: Return value of protein stability index for input TIQPSVTNPTLN , no commentary.
Output: 0.686

Input: Using the record for PVPPQHPPLKSI , state its measured protein stability index.
Output: 0.705

Input: Consider the sequence PGSCGATTRCLH and give its recorded protein stability index.
Output: 0.481

Input: Query protein stability index for LGIGTWGHRGDD
Output: 0.712

Input: # return recorded protein stability index for input AGEDRGSRWVCI
Output: 0.699

Input: // fetch protein stability index given entry RDFLLLASHLRF
Output: 0.764

Input: Indicate the recorded protein stability index value for this sequence: PLRLPPAPPFPL
Output: 0.824

Input: Return value of protein stability index for input GISFFPVGGPLI , no commentary.
Output: 0.735

Input: Please report protein stability index for the following sequence: WAFSAFDHCVAS
Output: 0.665

Input: Specify protein stability index for GMLLCAGGISKG and stop.
Output: 0.584

Input: Quickly give me recorded protein stability index for PTRQTIWPPPAS
Output: 0.748

Input: Check the records and state protein stability index for LDLAMRQYDLTG
Output: 0.681

Input: Provide protein stability index value for the following sequence: MAWGVGTRRLGW
Output: 0.679

Input: Respond only with protein stability index recorded for NVEFVVERIREK
Output: 0.6

Input: Could you please provide reported protein stability index for KKKKKKKNKKRK ? Thanks!
Output: 0.683

Input: Please give the documented protein stability index of RFPFFLLPPLSS
Output: 0.65

Input: Answer with the recorded protein stability index for the sequence listed here: SPPRPPVLSPGH
Output: 0.68

Input: Note down protein stability index recorded for PRPVRAVEMLTL
Output: 0.715

Input: Output protein stability index of PPPTLSPPPPPL
Output: 0.75

Input: Annotate the sequence PSSYFFPPHFLL with its measured protein stability index.
Output: 0.665

Input: Identify measured protein stability index associated with RPLSSSFRTVPS
Output: 0.721

Input: Answer with the recorded protein stability index of EGQVGVGWGWVR only.
Output: 0.786

Input: Answer with the recorded protein stability index of LSFSPSFLPDSP only.
Output: 0.782

Input: Fill in reported protein stability index for this entry: PPSLRFLLPPSA
Output: 0.685

Input: Give a short answer stating reported protein stability index for GILVVAASICYV .
Output: 0.447

Input: Give protein stability index for PRLFLFRSSFPP
Output: 0.681

Input: Using the record for SWMDRGGAYSGI , state its measured protein stability index.
Output: 0.731

Input: Please list protein stability index recorded for the sequence SFGIGFFATRGF
Output: 0.676

Input: For the sequence RYRRQESYVIIK , report protein stability index.
Output: 0.766

Input: Identify measured protein stability index associated with FLSSWFCYSSDL
Output: 0.735

Input: Identify measured protein stability index corresponding to FFAGASRFSSWS
Output: 0.752

Input: Output protein stability index of RSTVFCSTFVHD
Output: 0.672

Input: Write down protein stability index measured for item LLCRGLGSVGRR
Output: 0.63

Input: Quickly give me recorded protein stability index for GFCRKESVRCEK
Output: 0.683

Input: In one line, give reported protein stability index of the entry IPDSSPIVPHPK .
Output: 0.672

Input: Determine its reported protein stability index: SPAPLALSLRPP
Output: 0.668

Input: Please report the measured protein stability index for GEGRWWGSFWVG
Output: 0.672

Input: Specify measured protein stability index for TKCGESRENARI .
Output: 0.681

Input: Tell me its protein stability index given LSTPPLLPTPPS as the entry.
Output: 0.711

Input: Specify measured protein stability index for DGALWGTDRGAG .
Output: 0.701

Input: Quote protein stability index reported for SGLAARFGLPIR please.
Output: 0.674

Input: Supply reported protein stability index belonging to this sequence: LEGILFGPKIAT
Output: 0.623

Input: Return reported protein stability index. Input sequence: SNDTRKNKKRRT
Output: 0.797

Input: Note down protein stability index recorded for RSFPSPPASLLL
Output: 0.66

Input: Identify measured protein stability index associated with SRKSDTMPSYPL
Output: 0.791
